Reference source: PubChem BioAssay AID1159580

Experiment: chemical genetic growth profiling, strain panel (AID 1159580);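 note: tested at 20 µM; growth read once vehicle control cultures reached saturation at 30 °C; 1 = growth at the plate median or of vehicle wells; lower values mean less growth of the strain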
Details: S. cerevisiae deletion strains, growth OD, locus YMR263W, strain SAP30, stronger effect = lower value
Among all 5,500 compounds or so, about 2,000 (36%) were called active. Not shown: some 18% with an inconclusive outcome. This is one part of the list.
Endpoint Name: normalized growth

Molecule	Reported Measurement
COc1ccc2c(c1)C1(C)CCC(=O)CC1CC2 (stereo not drawn)	0.99 (inactive)

stdin: Given the molecule "Cc1c(C(=O)O)cc(-c2ccccc2)n1-c1ccccc1" , what is its reported normalized growth?
stdout: 0.981 (inactive)

stdin: What value of normalized growth has been reported for the following molecule? Ic1ccccc1CNC1C2CCN(CC2)C1C(c1ccccc1)c1ccccc1 (stereo not drawn)
stdout: 0.998 (inactive)

stdin: Find the recorded normalized growth belonging to "CC(=O)Nc1cccc(-n2nnc(SCc3ccccc3)n2)c1" and report it.
stdout: 1.01 (inactive)

stdin: Need normalized growth of CCc1ccc(CCOc2ccc(CC3SC(=O)NC3=O)cc2)nc1 (stereo not drawn) , thanks.
stdout: 1.04 (inactive)

stdin: // normalized growth lookup, key: "CC(=O)/C(=C\Nc1ncccn1)S(=O)(=O)c1ccc(Cl)cc1"
stdout: 0.987 (inactive)
